# test.system: T1, H4-15 histone H4 tail peptide
# T1 chain: GRGKGGKGLGKGGAK
readout.label: V/K (M⁻¹ s⁻¹)
Supply the numeric figure in M⁻¹ s⁻¹, leaving out any unit text.

The reported value for semi-synthetic p300 HAT domain, wild-type (protein) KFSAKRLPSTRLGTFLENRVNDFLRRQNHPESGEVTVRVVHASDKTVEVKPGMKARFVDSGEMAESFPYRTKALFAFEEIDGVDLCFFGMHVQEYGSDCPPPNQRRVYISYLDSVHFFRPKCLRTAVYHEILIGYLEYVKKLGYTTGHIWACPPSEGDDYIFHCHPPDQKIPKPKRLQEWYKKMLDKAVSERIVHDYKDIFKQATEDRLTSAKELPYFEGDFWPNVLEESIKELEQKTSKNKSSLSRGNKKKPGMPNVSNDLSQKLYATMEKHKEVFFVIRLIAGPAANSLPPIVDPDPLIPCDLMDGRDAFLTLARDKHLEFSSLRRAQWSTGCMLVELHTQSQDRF in terms of V/K is 25000
